Test: yeast display, Sf9 membrane polyspecificity reagent, FACS + sequencing; frameworks hold sequencing errors
Observable: polyreactivity (PSR sort gate)

// worked examples, polyreactivity (PSR sort gate) included
Macromolecule Sequence: QVQLVESGGGLVQAGGSLRLSCAASGRIFWTNDMGWYSKAPGKERELVAGITWRGGSTYYADSVKGRFTISRDNAKNTVYLQMNSLKPEDTAVYYCATRYRRVYTWYDYWGQGTQVTVSS
polyreactivity (PSR sort gate): high polyreactivity

Macromolecule Sequence: QVQLVESGGGLVQAGGTLRLSCAASGRISAFNAMGWYRQAPGKERELVAAIHVSGGNTYYADSVKGRFTISRDNAKNTVYLQMNSLKPEDTAVYYCAAERRRWGVDYYYWGQGTQVTVST
polyreactivity (PSR sort gate): high polyreactivity

Macromolecule Sequence: QVQIVESGGGLVQAGGSLSLSCAASGRTISWYTMGWYRQAPGKERELVAGISSSGGSTYYADSVKGRFTISRDNAKNTVYLQLNSLKPEDTADYFCAAGDFRYVDRYGDMEYWGQGTQVTVSS
polyreactivity (PSR sort gate): low polyreactivity

Macromolecule Sequence: QVQLVESGGRLVQAGGSRRLSCAASGSTFYTNDMGWYIQAPGKERELVAAISSGGDYADSVKGRFTISRDNAKNTVYLQMNSLKPEDTAVYYCAKADTKWGQGTQVTVSS
polyreactivity (PSR sort gate): low polyreactivity

Macromolecule Sequence: QVQLVKSGGGLVQAGGSLRLSCAASGGTFSFYTMGWYRQAPGKERELVAAIDSTGRTNYADSVKGRFTISRDNANHTVYLQMNSLKPEDTAVYYCAAGPPRADYDYWGQGTQVNVSS
polyreactivity (PSR sort gate): low polyreactivity

I'm hoping you can list polyreactivity (PSR sort gate) for every sequence here, please.
1. QVQLVESGGGLVQAGGSLRLSCAASGIIFISYDMGWSRQAPGKERELVARINWDGGSTYYADSVKGRFTISRDNAKNTVYLQMNSLKPEDTAVYYCAAGFVGTNYPVLGFSYEYWGQGTQVTVSS
2. QVQLQESGGGLVQASGSIFHEPNMCWYRQAPGKERELVAGISSGANTYYADSVKGRFTISRDNAKNTVYLQMNSLKPEDTAVYHCAVVVHLYTELRYWGQDTQVTVSS
3. QVQLEESGGGLVQAGGSLRLSCAASGFTFVPYAMGWYRPAPGKETEFVAALFSDGSTYYADSVKGRFTISRDNAKNTVYLQMNSLKPEDTAVYYCAAAGESSRTGHFDYWGQGTQVTVSS
4. QVQLVESGGGLVQAGGSLRLTCAASGIIFDKNAMGWYRQAPGKERELVAVITRGGSTYYADSVKGRFTISRDNAKNTVYLQMNSLKPEDTAVYYCAARYTPGFGYWGQGTQVTVSS
5. QVQLVESGGGLVQAGGSLRLSCAASGSTFDHNAMGWYRQAPGKEREFVAAISARGGITYYADSVKGRFTISRDNAKNTVYLQMNSLKPEDTAVYYCADVFGDYWSSQWSYAYGYWGLGTQVTVSS
6. QVQLVESGGGLVQAGGSLRLSCAASGRTFGGNAMGWYRQAPGKERELVAAITVSAGHTYYADSVKGRFTISRDNAKNTVYLQMNSLKPEDTAVYYCAAGVPYYWSYVWKHPRYDHWGQGTQVTVSS
7. QVQLVESGGGVVQAGGSLRLSCAASGRIFLTNALGWYRQAPGKVREVVADISRGGSTYADSVKGRFTISRDTAKNTVYLQMTSLKPEDTAVDYCAADEYSPGDSRTRYAYWGQGTQVPVSS

1. low polyreactivity
2. high polyreactivity
3. low polyreactivity
4. high polyreactivity
5. high polyreactivity
6. low polyreactivity
7. low polyreactivity

Every entry's value here was drawn from the nanobody polyreactivity screen of Harvey et al. (2022).
